- MEASUREMENT DESCRIPTION: Gemcitabine
- Format: in vivo, human
- CONDITION SUMMARY: human, plasma, intravenous, dFdC t½, All (N=27); mean (standard deviation)
ENDPOINT LABEL: half-life (min)
Please give a number only; it is taken to be in min.

Please report the recorded half-life for `Nc1ccn([C@@H]2O[C@H](CO)[C@@H](O)C2(F)F)c(=O)n1` . 26.6

====

- MEASUREMENT DESCRIPTION: Veliparib plasma pharmacokinetics, cycle 1
- Type: in vivo, human
- CONDITION SUMMARY: human, plasma, oral
ENDPOINT LABEL: half-life (h)
Please give a number only; it is taken to be in h.

Please report the recorded half-life for C[C@]1(c2nc3c(C(N)=O)cccc3[nH]2)CCCN1 [veliparib] . 5.1

Where do these numbers come from? They come from paper PMC5734661.
